test system: Tobacco mosaic virus; experiment: In vivo antiviral activity against Tobacco mosaic virus (TMV) infected tobacco leaves assessed as protective effect at 500 ug/ml treated 12 hr before viral inoculation measured at 2-3 days after viral challenge; assay type: functional
Decide using Activity alone. Strictly below 50%: Fulfilled. Equal to or above 50%: Not fulfilled.

Example cases with answers are listed next.
INSERT INTO results (molecule, cat) VALUES
  ('Cc1ccc(N(C(=O)c2snnc2C)C(C(=O)NC2CCCCC2)c2ccc(O)cc2)cc1F (centres undefined)', 'Not fulfilled'),
  ('Cc1ccc(NC(=O)c2snnc2C)cc1Cl [TIADINIL]', 'Fulfilled'),
  ('Cc1ccc(N(C(=O)c2snnc2C)C(C(=O)NC2CCCCC2)c2cccc([N+](=O)[O-])c2)cc1F (centres undefined)', 'Not fulfilled'),
  ('Cc1ccc(N(C(=O)c2snnc2C)C(C(=O)NC2CCCCC2)c2ccc([N+](=O)[O-])cc2)cc1F (centres undefined)', 'Fulfilled'),
  ('NC(=O)c1ncn([C@@H]2O[C@H](CO)[C@@H](O)[C@H]2O)n1 [RIBAVIRIN]', 'Fulfilled'),
  ('Cc1ccc(N(C(=O)c2snnc2C)C(C(=O)NC2CCCCC2)c2cccc(C(F)(F)F)c2)cc1F (centres undefined)', 'Not fulfilled');

Read the next record carefully.
Problem: Find out if reported Activity for Cc1ccc(N(C(=O)c2snnc2C)C(C(=O)NC2CCCCC2)c2ccccc2C)cc1F (centres undefined) is less than 50%
Solution: Fulfilled

====

tested on: Fusarium oxysporum; assay: Fungicidal activity against Fusarium oxysporum at 50 ug/ml by growth inhibition method; assay type: functional; set-up: scale not given: the % may be the effect or the level left
MEASURED_ENDPOINT: Activity (%)
One number for each entry, in %.

Use the examples below as a reference point.
INSERT INTO results (compound, measured_endpoint, result) VALUES
  ('Cc1ccc(N(C(=O)c2snnc2C)C(C(=O)NC2CCCCC2)c2ccccc2)cc1Cl (configuration not stated)', 'Activity', 25),
  ('Cc1ccc(N(C(=O)c2snnc2C)C(C(=O)NC2CCCCC2)c2ccc([N+](=O)[O-])cc2)cc1Cl (configuration not stated)', 'Activity', 22),
  ('Cc1ccc(N(C(=O)c2snnc2C)C(C(=O)NC2CCCCC2)c2cccc(F)c2)cc1Cl (configuration not stated)', 'Activity', 21),
  ('Cc1cccc(C(C(=O)NC2CCCCC2)N(C(=O)c2snnc2C)c2ccc(C)c(Cl)c2)c1 (configuration not stated)', 'Activity', 18),
  ('Cc1ccc(N(C(=O)c2snnc2C)C(C(=O)NC2CCCCC2)c2ccccc2[N+](=O)[O-])cc1Cl (configuration not stated)', 'Activity', 22),
  ('Cc1ccc(N(C(=O)c2snnc2C)C(C(=O)NC2CCCCC2)c2ccc(F)cc2)cc1Cl (configuration not stated)', 'Activity', 0),
  ('Cc1ccc(N(C(=O)c2snnc2C)C(C(=O)NC2CCCCC2)c2ccccc2Cl)cc1Cl (configuration not stated)', 'Activity', 0),
  ('Cc1ccc(N(C(=O)c2snnc2C)C(C(=O)NC2CCCCC2)c2cccc(O)c2)cc1Cl (configuration not stated)', 'Activity', 34),
  ('Cc1ccc(N(C(=O)c2snnc2C)C(C(=O)NC2CCCCC2)c2cccc(C(F)(F)F)c2)cc1Cl (configuration not stated)', 'Activity', 31),
  ('Cc1ccc(N(C(=O)c2snnc2C)C(C(=O)NC2CCCCC2)c2ccc(O)cc2)cc1Cl (configuration not stated)', 'Activity', 38);

For every listed record, write down its Activity.
1. Cc1ccc(N(C(=O)c2snnc2C)C(C(=O)NC2CCCCC2)c2cccc(Cl)c2)cc1Cl (configuration not stated)
2. Cc1ccc(C(C(=O)NC2CCCCC2)N(C(=O)c2snnc2C)c2ccc(C)c(Cl)c2)cc1 (configuration not stated)

Solution:
11
18
